What IC50 was measured for each of the following?
molecular target: human BACE1 (Homo sapiens, UniProt P56817); experiment: Fluorescent kinetic assay, evaluation of BACE1 binding affinity of test compounds; format: biochemical; conditions: 10 nM human BACE1, 25 μM substrate WABC-6, pH 4.5, room temperature; read-out: BACE1 IC50
Sequence (P56817 46-501): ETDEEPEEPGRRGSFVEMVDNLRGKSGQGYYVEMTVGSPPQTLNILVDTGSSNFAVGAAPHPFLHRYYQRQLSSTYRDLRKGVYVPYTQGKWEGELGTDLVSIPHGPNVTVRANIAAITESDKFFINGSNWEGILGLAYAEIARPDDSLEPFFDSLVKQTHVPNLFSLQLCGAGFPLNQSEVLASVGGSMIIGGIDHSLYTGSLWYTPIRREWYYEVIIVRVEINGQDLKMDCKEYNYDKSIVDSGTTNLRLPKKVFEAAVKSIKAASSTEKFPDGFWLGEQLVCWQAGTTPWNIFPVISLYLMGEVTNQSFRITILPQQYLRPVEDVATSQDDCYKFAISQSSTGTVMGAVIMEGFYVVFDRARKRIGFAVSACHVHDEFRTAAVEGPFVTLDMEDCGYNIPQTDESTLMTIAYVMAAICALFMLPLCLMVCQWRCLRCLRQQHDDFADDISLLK

Worked cases, answers included:
Given the entry `CCc1cc([C@]2(c3ccc(F)c(C#CCF)c3)N=C(N)N(C)C2=O)ccc1OC(F)F` , what IC50 was observed with human BACE1 (Homo sapiens, UniProt P56817)?
< 100 nM

Given the entry CN1C(=O)C(c2cccc(C#CCCCO)c2)(c2ccc(OC(F)F)c(C3CC3)c2)N=C1N (stereo not drawn) , what IC50 was observed with human BACE1 (Homo sapiens, UniProt P56817)?
< 100 nM

Given the entry Cc1cc(C2(c3ccc(F)c(OC(C)C)c3)N=C(N)N(C)C2=O)ccc1OC(F)F (stereo not drawn) , what IC50 was observed with human BACE1 (Homo sapiens, UniProt P56817)?
110 to 1000 nM

Parameters: items (list). Returns: IC50 for each item.
1. Cc1cc([C@@]2(c3ccc(F)c(OCC4CC4)c3)N=C(N)N(C)C2=O)ccc1OC(F)F
2. CCC#Cc1cc(C2(c3ccc(OC(F)F)c(C)c3)N=C(N)N(C)C2=O)ccc1F (stereo not drawn)
3. CN1C(=O)C(c2cccc(C3CC3)c2)(c2ccc(OC(F)F)c(C3CC3)c2)N=C1N (stereo not drawn)
4. CCc1cc([C@@]2(c3ccc(F)c(C#CC4CC4)c3)N=C(N)N(C)C2=O)ccc1OC(F)F

1: > 1000 nM; 2: < 100 nM; 3: 110 to 1000 nM; 4: 110 to 1000 nM

Parameters: items (list). Returns: IC50 for each item.
1. CN1C(=O)C(c2cccc(C#CCCCF)c2)(c2ccc(OC(F)F)c(C3CC3)c2)N=C1N (stereo not drawn)
2. COC/C=C/c1cc(C2(c3ccc(OC(F)F)c(C)c3)N=C(N)N(C)C2=O)ccc1F (stereo not drawn)
3. CN1C(=O)C(c2ccc(OC(F)F)c(Cl)c2)(c2ccc(F)c(OCCCF)c2)N=C1N (stereo not drawn)
4. Cc1cc([C@@]2(c3ccc(F)c(C#CCCF)c3)N=C(N)N(C)C2=O)ccc1OC(F)F
5. Cc1cc([C@]2(c3ccc(F)c(OCC4CC4)c3)N=C(N)N(C)C2=O)ccc1OC(F)F
6. CCc1cc(C2(c3ccc(F)c(C#CCOC)c3)N=C(N)N(C)C2=O)ccc1OC(F)F (stereo not drawn)
7. CN1C(=O)C(c2ccc(F)c(O)c2)(c2ccc(OC(F)F)c(Cl)c2)N=C1N (stereo not drawn)

["< 100 nM", "< 100 nM", "< 100 nM", "110 to 1000 nM", "< 100 nM", "< 100 nM", "110 to 1000 nM"]

Parameters: items (list). Returns: IC50 for each item.
1. COCC#Cc1cccc([C@]2(c3ccc(OC(F)F)c(C4CC4)c3)N=C(N)N(C)C2=O)c1 (single isomer, unassigned)
2. CCc1cc(C2(c3ccc(F)c(OCCC(F)F)c3)N=C(N)N(C)C2=O)ccc1OC(F)F (stereo not drawn)
3. CN1C(=O)[C@@](c2cccc(C#CC3CC3)c2)(c2ccc(OC(F)F)c(C3CC3)c2)N=C1N (single isomer, unassigned)
4. CC(C)c1cc(C2(c3ccc(F)c(C#CC4CC4)c3)N=C(N)N(C)C2=O)ccc1OC(F)F (stereo not drawn)
5. Cc1cc(C2(c3ccc(F)c(C#CC(C)C)c3)N=C(N)N(C)C2=O)ccc1OC(F)F (stereo not drawn)

110 to 1000 nM
< 100 nM
110 to 1000 nM
< 100 nM
< 100 nM

###

biological target: human BACE1 (Homo sapiens, UniProt P56817); assay: Fluorescent kinetic assay, evaluation of BACE1 binding affinity of test compounds; type: biochemical; conditions: 10 nM human BACE1, 25 μM substrate WABC-6, pH 4.5, room temperature; read-out: BACE1 IC50
EXPERIMENTAL_ENDPOINT: IC50

Given the entry CCc1cc([C@]2(c3ccc(F)c(OCC(F)F)c3)N=C(N)N(C)C2=O)ccc1OC(F)F [Example 119] , what IC50 was observed with human BACE1 (Homo sapiens, UniProt P56817)?
< 100 nM

Given the entry CCc1cc(C2(c3ccc(F)c(C#CCF)c3)N=C(N)N(C)C2=O)ccc1OC(F)F (centres unmarked) [Example 159] , what IC50 was observed with human BACE1 (Homo sapiens, UniProt P56817)?
< 100 nM

Given the entry Cc1cc(C2(c3cccc(OCC(F)F)c3)N=C(N)N(C)C2=O)ccc1OC(F)F (centres unmarked) [Example 43] , what IC50 was observed with human BACE1 (Homo sapiens, UniProt P56817)?
< 100 nM

Given the entry CN1C(=O)C(c2ccccc2)(c2ccc(OC(F)F)c(CCCl)c2)N=C1N (centres unmarked) [Example 141] , what IC50 was observed with human BACE1 (Homo sapiens, UniProt P56817)?
< 100 nM

Given the entry COCC#Cc1cccc(C2(c3ccc(OC(F)F)c(C4CC4)c3)N=C(N)N(C)C2=O)c1 (centres unmarked) [Example 180] , what IC50 was observed with human BACE1 (Homo sapiens, UniProt P56817)?
< 100 nM

Given the entry CN1C(=O)C(c2ccc(OC(F)F)c(CCF)c2)(c2ccc(F)c(OCC(F)F)c2)N=C1N (centres unmarked) [Example 129] , what IC50 was observed with human BACE1 (Homo sapiens, UniProt P56817)?
< 100 nM

Given the entry Cc1cc([C@]2(c3ccc(F)c(OCCF)c3)N=C(N)N(C)C2=O)ccc1OC(F)F [Example 113] , what IC50 was observed with human BACE1 (Homo sapiens, UniProt P56817)?
< 100 nM

Given the entry CN1C(=O)[C@@](c2cccc(Br)c2)(c2ccc(OC(F)F)c(C3CC3)c2)N=C1N (single isomer, unassigned) [Example 166] , what IC50 was observed with human BACE1 (Homo sapiens, UniProt P56817)?
> 1000 nM

Given the entry CC#Cc1cccc(C2(c3ccc(OC(F)F)c(C4CC4)c3)N=C(N)N(C)C2=O)c1 (centres unmarked) [Example 168] , what IC50 was observed with human BACE1 (Homo sapiens, UniProt P56817)?
< 100 nM

Given the entry CN1C(=O)C(c2cccc(C#CC3CC3)c2)(c2ccc(OC(F)F)c(C3CC3)c2)N=C1N (centres unmarked) [Example 176] , what IC50 was observed with human BACE1 (Homo sapiens, UniProt P56817)?
< 100 nM

Parameters: items (list). Returns: IC50 for each item.
1. CCc1cc([C@@]2(c3ccc(F)c(OCCC(F)F)c3)N=C(N)N(C)C2=O)ccc1OC(F)F [Example 135]
2. CN1C(=O)C(c2ccc(F)c(OCC(F)F)c2)(c2ccc(OC(F)F)c(C3CC3)c2)N=C1N (centres unmarked) [Example 123]

1: > 1000 nM; 2: < 100 nM

Parameters: items (list). Returns: IC50 for each item.
1. CCc1cc([C@@]2(c3ccc(F)c(C#CCF)c3)N=C(N)N(C)C2=O)ccc1OC(F)F [Example 163]
2. CCOc1cccc(C2(c3ccc(OC(F)F)c(C)c3)N=C(N)N(C)C2=O)c1 (centres unmarked) [Example 41]
3. COCC/C=C/c1cccc(C2(c3ccc(OC(F)F)c(Cl)c3)N=C(N)N(C)C2=O)c1 (centres unmarked) [Example 67]

110 to 1000 nM
< 100 nM
< 100 nM

Parameters: items (list). Returns: IC50 for each item.
1. CCC#Cc1cccc(C2(c3ccc(OC(F)F)c(C4CC4)c3)N=C(N)N(C)C2=O)c1 (centres unmarked) [Example 171]
2. CN1C(=O)C(c2cccc(C#CC(C)(C)O)c2)(c2ccc(OC(F)F)c(C3CC3)c2)N=C1N (centres unmarked) [Example 179]
3. Cc1cc(C2(c3cccc(OCCF)c3)N=C(N)N(C)C2=O)ccc1OC(F)F (centres unmarked) [Example 42]
4. CC(C)c1cc(C2(c3ccccc3)N=C(N)N(C)C2=O)ccc1OC(F)F (centres unmarked) [Example 137]
5. CN1C(=O)C(c2ccc(F)c(C#CC3CC3)c2)(c2ccc(OC(F)F)c(CCF)c2)N=C1N (centres unmarked) [Example 92]

< 100 nM
< 100 nM
< 100 nM
110 to 1000 nM
< 100 nM

###

target: human BACE1 (Homo sapiens, UniProt P56817); assay: Fluorescent kinetic assay, evaluation of BACE1 binding affinity of test compounds; format: biochemical; settings: 10 nM human BACE1, 25 μM substrate WABC-6, pH 4.5, room temperature; read-out: BACE1 IC50
pIC50: −log10 of the molar value.
EXPERIMENTAL_ENDPOINT: pIC50

Worked cases, answers included:
Given the entry CC(C)C#Cc1cccc(C2(c3ccc(OC(F)F)c(C4CC4)c3)N=C(N)N(C)C2=O)c1 (centres unmarked) , what pIC50 was observed with human BACE1 (Homo sapiens, UniProt P56817)?
> 7.00

Given the entry COCCC#Cc1cccc([C@]2(c3ccc(OC(F)F)c(C4CC4)c3)N=C(N)N(C)C2=O)c1 (single isomer, unassigned) , what pIC50 was observed with human BACE1 (Homo sapiens, UniProt P56817)?
6.00 to 6.96

Given the entry CN1C(=O)C(c2ccc(F)c(C#CCCF)c2)(c2ccc(OC(F)F)c(CCF)c2)N=C1N (centres unmarked) , what pIC50 was observed with human BACE1 (Homo sapiens, UniProt P56817)?
> 7.00

Given the entry CN1C(=O)[C@](c2cccc(C#CCCCO)c2)(c2ccc(OC(F)F)c(C3CC3)c2)N=C1N (single isomer, unassigned) , what pIC50 was observed with human BACE1 (Homo sapiens, UniProt P56817)?
> 7.00

Next item in the queue.
Given the entry CN1C(=O)[C@](c2cccc(Br)c2)(c2ccc(OC(F)F)c(C3CC3)c2)N=C1N (single isomer, unassigned) , what pIC50 was observed with human BACE1 (Homo sapiens, UniProt P56817)?
> 7.00
